test: yeast display, Sf9 membrane polyspecificity reagent, FACS + sequencing; frameworks hold sequencing errors

BIOSEQUENCE | polyreactivity (PSR sort gate)
QVQLVESVGGLVQAGVSLRLRCAASGFIFWYYAMGWYRQATGKDRELVASISARDGSTYYADSVKGRFTISRYNAKNTVYLQMNSLKPEDTAVYYCNAVQRYPKYRMDYCGQGTQVTVSS | low polyreactivity
QVQLVESGGGLVQAGGSLRLSCAASGSIFEPYAMGWYRTAPGKERELVAAISSGGSTNYADSVKGRFTISRDNAKNTVYLQMNSLKPEVTAVYYCAAAYYTVGWLYYDYWYPFAYYYWGQGTQVTVSS | low polyreactivity

====

test: yeast display, Sf9 membrane polyspecificity reagent, FACS + sequencing; frameworks hold sequencing errors

BIOSEQUENCE | polyreactivity (PSR sort gate)
QDQLVESGGGLVQAGGSLRLSCAASGSIFGGYGMGWYRQAPGKERELVAAITSGSSTYYADSVKGRFTISRDNAKNTVYLQMNSLKPEDTAVYYCAARPYPHSAYQGDYWGRGTQVTVSS | low polyreactivity
QVQLVETGGGLVQAGGSLRLSCADSGFIFRYYAMGRYRQAPGKERELVAAISSRGASTYYADSVKGRFTISRDNEKNTVYLQMNRLKPEDTAVYDCNARFNRASEMDYWGQGTQVTVSS | high polyreactivity
QVQLVESGGGLVQAGGSLRLSCAASGSIFPGYAMGWYRQAPGKERELVATITWSGGSTYYADSVKGRFTISRDNAKNTVYLQMNSLIPEDTAVYYCNADSNWYYQWNYYGLYDYWGQGTQVTVSS | low polyreactivity
QVQLVESGGGLVQAGGSLRLSCAASGINFVLYAMGWYRQAPGKERELVAAITSGGRTYYADSVNGRFTISRDNAKNTVYLQMISLKPEDTAVYYCADNYFTQRLWFDYWGQGTQVSVSS | high polyreactivity
QDQLVESGGGLVQAGGSLRLSCAASGSLFDLYAMGWYRQAPGKERELVAAISWSDSRTYYADSVKGRFTISRDNAKNTVYLQMNSLKPEDTAVYYCAADYRYPDNYGGYDYWGQGTQVTVSS | low polyreactivity
QVQLAESGAGLVQAGGSLRLSCAASGFTFFPYAMGWYIQAPGKERELVAGITYNGGSTYYADSVKGRFTISRDNAKNTVYLQMNSLKPEDTAVYYCNAGRIGGFDWGQGTQVTVSS | low polyreactivity
QVQLVESGGGLVQAGGSLRLSCAASRLTFAGNAMGWYRQAPGKEREFVATITWSDGSTRYADSVKGRFTISRDNAKNSVYLQMNSLKPEDTAVSYCNTQYPDYFYEFNYWGQGTQVTVSW | low polyreactivity
QVQLVESGGGLVQAGGSLRLSCAASGSTFRNYAMGWYRQAPGKERELVAAITKRGGTTYYADSVKGRFTISRDNAKNTVYLQMNSLKPEDTAVYYCAARVKGQWNTYDYWGQVTQVTVSS | high polyreactivity
QVQLVESGGGLVQAGGSLRLSCTASGSTYVAYAMGLYRQAPGKERELVAAITSSGGRTYYADSVKGRFTISRDNAKNTVYLQMNSLKPEDTAVYYCDAVTHGRYDWGQGTQVTVSS | high polyreactivity
QVQLVESGGGLVQAGGSLRLSCAASGFIFQKYAMGWYRQAPGKERELVAAIRYDGGSTYYADSVKGRFTISRDNAKNTVYLQMNSLKPEDTAVYYCAAYGPRFLIYPPYRYNYWGQGTQVTVSS | high polyreactivity
QVQLVESGGGLVQAGGSLRLSCAASGFILSPNTMGWYRPAPGKERELVAAISTDVSTYADSVKGRFTISRDNAKNTVYFQMNSLKPEDTAVYYCNADDFGYASYEYWGQGTQVTVSS | low polyreactivity

====

assay: yeast display, Sf9 membrane polyspecificity reagent, FACS + sequencing; frameworks hold sequencing errors

BIOSEQUENCE | polyreactivity (PSR sort gate)
QVQLVESGGGLVQAGGSLRLSCAASGFTFTRYAMGWYRQAPGKERELVAAISRIGGSTYYADSVKGRFTISRDNAKNTVYLQMNSLKPEDTAVYYCAASKVPSYDYWGQGTQVTVSS | high polyreactivity
QVQLVESGGGLVQAGGSLRLSCAASGFTFYYYAMGWYRQAPGKERELVAAISIGGSTYYAGSVKGRFTISRHNEKNTVYLQMNSLKPEDTAVYYCNVVFTYWPPGTARYDYSGQGTQVTVSS | high polyreactivity
QVQLVESGGGLVQAGGSLRLSCAASGRNFNKNAMGWYRQAPGKERELVAAITDRGGSTNYADSVKGRFTISRDNAKNTVYLQMNSLKPEDTAVYYCNTGRKLVYRYPGYDYWGQGTQVTVSS | low polyreactivity
QVQLVESGRGLVQAGCSLRLSCAASGSIFEWYAMGWSRQAPGKEMELVADITYNGGSTYYADSVKGRFTISRDNAKNTVYLQMNSLKPEDTAVYYCAADYFVQVPDYYYASEYGYWGQGTQVTVSS | low polyreactivity
QVQLVESGGGIVQAGGSLRLSCAASGSTIGYYAMGWSRQAPGKERELVAAISRRGGSTYYADSVKGRFTISRDNAKNTVYLQMTSLKPEDTAVYYCAADRRIGDGENYYWGQGTQVTVSS | high polyreactivity
QVQLVDSGGGLVQAGGSLSLSCAASGRTFNYKAMGWYRQAPGKERELVAAISWGGGSTFYADSVKGRFTISRDNAKNTVYLEMNSLKPEDTAVYYCAAYRQYGNRGAYYSWGQGTQVTVSS | low polyreactivity
QVQLVESGGGLVQAGGSLRLICAASGRTFYKYAMGWYRQAPGKEREFVADISSRGGSTYYADSVKGRFTISRDNAKNTVYLQMNSLKPEDTSVYYCAAFSDLTFWHHFSELYYWGQGTQVTVSS | high polyreactivity
QVPLVESGGGLVQAGRSLRLSCAASGITFRHNTMGWYRQAPGKERELVSTNYADSVKGRFTFSRDNAKNTVYLQMNSLKPEDTAVYYCNADGTFESDYWGQGTQVTVSS | low polyreactivity
QVQLVESGGGLVQAGGSLRLSCAASGRIFTYYAMGWYRQAPGKERELVAAITGSGGSTYYADSVKGRFTISRDNAKNTVYLQMNSLKPEDTAVYYCAAYWFTATWYYYWGQGTQVTVSS | high polyreactivity
QVQLVESGGGLVQAGGSLRLSCAASGITFQKYVMGWYRQAPGKEREFVAAITARGGTTYYADSVKGRFTISRDNAKNTVYLQMNSLKPEDTAVYYCAADLRRFQSYYYWGQGTQVTVSS | high polyreactivity
QVQIVESGGGLVQAGGSLRLTCAASGSIFTVYAMGWYRQEPGKERELVAAISSGASTNYADTVKGRFTISRDNATNTVYLQMNSLKPEDTAVYYFAARLYARRLYDYWGQGSQVTVSS | low polyreactivity
QVQLVESGGGLVQAGGSLRLSCAASGSTFDNYALGWYRQAPGKERELVAAINWSGSSTYYADSVKGRFTISRDNAKNTVYLQMNSLKPEDTAVYYCNKTGVTPKTATDGDYWGQGTQVTVSS | low polyreactivity
QVQLVESGGGLVQAGGSLRLSCAASGFIFSYYAMGWYRQAPGKERELVAAITWSGGGTYYADSVKGRFTISRDNAKNTVYLQMNSLKPEDTAVYYCAAERVYPDGEYWGQGTQVTVSS | high polyreactivity
QVQLVESGGGLVQAGGTLRLSCAASVSTIAQNAMGWYRQAPGKEREFVAAITGTVGSTYYADSVKGRFTISRDNAKNTVYLQMKSLKPEDTAVYYCNTRGFNGRVYPYDYWGQGTQVTVSS | low polyreactivity
QVQLVESGGGLVQAGGSLRLSCAASGSTFPTNAMGWYRPAPGKERELVATFTTGGSTYYADSVKGRFTISRDNAKNTVYLQMNSLKPVDTAVYYCNAEYVYLIFSVYLYDYDYWGQVTQVTVSS | low polyreactivity
QVHLEESGGGLVQAGGSLRLSCAASGGTILAYAMGWYRQAPGKERELVAAITRRGTRTYYADSVKGRFTISLDNAKNTVYLQMNSLKPEVTAVFYCAVSGGFYWGQGTQVTVSS | high polyreactivity
QVQLVESGGGLVQAGGSLRLSCAASGFTFDSYAMGWYRQAPGQERELVPAISSSSSTNYADSVKGRFTISRDNAKNTVYLPLNSLKPEDTAVYYCNADSPEGYRLLDYWGQGTQVTVSS | low polyreactivity
QVQLVESGGCLVQAGGSLRLSCAASGSIFAEYAMGWSRQAPGKERELVASISSRGGRTFYADSVKGRFTISRDNAKNTVYLQMNSLKPEDTAVYYCNALRIYITKKTGYGYWGQGTQVTVSS | high polyreactivity
QVQLVESGGGLVQAGGSLRLSCAASGGTFNQYAMGWYRQAPGKEREFVASISRRGGSTYYADSVKGRFTISRDNAKNTVYLQMNSLKPEDTAVYYCAADAFFRLDYYYWGQGTQVTVSS | high polyreactivity
QDQLVESGGGLVQAGGSLRLSCAASGSTFRRYTMGWYRQAPGKERELVAVITKSGGSTYYADSVKGRFTISRDNAKNTVYLQMNRLKPEDTAVYYCAAGVAWRFYSWLGHFNGFDYWGQGTQVTVSS | high polyreactivity
QVQLVESGGGLVQAGGSLRLSCAASGRTFYSNAMGWYRESPGKERELVAAISRSGGTTYYADSVKGRFTISRDHAKNTVSLLMNSLKPEDTAVYYCNTLRYGTTGKYDYWGQGTQVTVSS | high polyreactivity

The measured values listed here are drawn from the nanobody polyreactivity screen of Harvey et al. (2022).
